// provenance: patent US12516022B2

assay-text: Time course of conversion to indirubin in FaSSGF at 37° C.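 Also: compound incubated in fasted state simulated gastric fluid, species in samples quantified by UPLC-MS with UV (210–400 nm) and ELS detection.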
Format: physicochemical
condition-summary: FaSSGF (Example 4; table title prints FaSSIF) 37° C., 2 h
readout-label: indirubin methylene alcohol (%)

# example entries with known answers
CNCCNC(=O)N1C(=O)/C(=C2\Nc3ccccc3C2=O)c2ccccc21.Cl [drawing 279]; 0
CN(C)CCN(CCN(C)C)CN1C(=O)/C(=C2\Nc3ccccc3C2=O)c2ccccc21 [drawing 271]; 8
O=C1/C(=C2/C(=O)N(CN3CCOCC3)c3ccccc32)Nc2ccccc21 [drawing 276]; 3
O=C1/C(=C2/C(=O)N(CN3CCCC3)c3ccccc32)Nc2ccccc21 [drawing 270]; 0
O=C1/C(=C2/C(=O)N(CN3CCCCC3)c3ccccc32)Nc2ccccc21 [drawing 269]; 0

a. CN(C)CCN(C)CN1C(=O)/C(=C2\Nc3ccccc3C2=O)c2ccccc21 [drawing 268]
b. CN1CCN(CN2C(=O)/C(=C3\Nc4ccccc4C3=O)c3ccccc32)CC1 [drawing 273]
c. O=C1/C(=C2/C(=O)N(COS(=O)(=O)O)c3ccccc32)Nc2ccccc21 [drawing 277]
Sort low-to-high on indirubin methylene alcohol, please. # respond with the labels, arranged in the requested order b, a, c
(b: 0%, a: 1%, c: 22%)
